From: PubChem BioAssay (NCI)

Test system: NCI-H23 lung
PROTOCOL: NCI-60 one-dose screen, 48 h (100 = growth as untreated, 0 = no growth, -100 = all killed)
TEST PARAMETERS: 10 µM unless noted
This is part of a sample that, as a whole, favours compounds with a hit. Of some 83,000 tested, about 20% had one in any assay.
Kindly state growth for each of the entries shown.
I only need the number, in %, no unit after it.

input: Give its growth value. Item: "c1ccc(-n2nnnc2-c2cccc3ccccc23)cc1"
output: 52.1

input: Give its growth value. Item: "ClC1=C(Cl)C(Cl)=C(Cl)C1=C/C=C/c1ccccc1"
output: -45.9

input: Give its growth value. Item: CC/C=C\C=C/C(=O)N/C=C/CC1Cc2cccc(O)c2C(=O)O1 (configuration not stated)
output: 77.1

input: Give its growth value. Item: "CCOC(Cc1c(N)[nH]c(=S)[nH]c1=O)OCC"
output: 104

input: Give its growth value. Item: "C[n+]1ccc(C#N)c2ccccc21"
output: 94.7

input: Give its growth value. Item: "Cc1cc(C)n2nc(SCC(=O)Nc3sc4c(c3C(N)=O)CCC4)nc2n1"
output: 101

input: Give its growth value. Item: COc1ccc(C2CC(c3ccc(OC)c(OC)c3)=NN2C(=O)c2cc(OC)c(OC)c(OC)c2)c(OC)c1 (configuration not stated)
output: 92.6

input: Give its growth value. Item: COc1ccc(C(=O)C(C)Br)cc1OC (configuration not stated)
output: 90.7

input: Give its growth value. Item: "COc1ccc(-c2csc(NC(=O)c3cc(OC)c(OC)c(OC)c3)n2)cc1"
output: 114

input: Give its growth value. Item: "COc1cccc(-c2nnc(N)o2)c1"
output: 101

input: Give its growth value. Item: "COc1ccc2nccc(/C=C/c3ccnc4ccc(OC)cc34)c2c1"
output: 104

input: Give its growth value. Item: "CCCCN(CCCC)CCCOC(=O)c1ccc(N)cc1"
output: 96.1

input: Give its growth value. Item: "O=[N+]([O-])c1ccc(N/N=C/c2c(O)ccc3ccccc23)nc1"
output: 61.4

input: Give its growth value. Item: "CCC(C)(C)C(=O)O[C@H]1C[C@@H](C)C=C2C=C[C@H](C)[C@H](CC[C@@H]3C[C@@H](O)CC(=O)O3)[C@H]21"
output: 48.7

input: Give its growth value. Item: "CCN(CC)c1ccc(CN(CC(=O)c2ccc(Cl)c(Cl)c2)Cc2ccccc2)cc1"
output: 97.6

input: Give its growth value. Item: "CCN1C[C@@H](C)n2c(c(O)c3c(=O)n(Cc4ccc(F)c(Cl)c4)nc(C(=O)NC)c32)C1=O"
output: 11.3

input: Give its growth value. Item: "CC(C)c1nc(N(C)S(C)(=O)=O)nc(-c2ccc(F)cc2)c1/C=C/[C@@H](O)C[C@@H](O)CC(=O)O"
output: 109

input: Give its growth value. Item: CCC(C)CC(CC)NCCN1CCN(C(CC)CC(C)CC)C1=S (configuration not stated)
output: 42.5

input: Give its growth value. Item: "O=C(Nc1ccncc1)C(=O)c1cn(S(=O)(=O)c2cccc(F)c2)c2ccccc12"
output: 34

input: Give its growth value. Item: "Cc1nc2cc(NC(=O)CN3CCN(CCN4C(=O)c5cccc6cccc(c56)C4=O)CC3)ccc2s1"
output: 60.9

input: Give its growth value. Item: "O=C1c2ccccc2C(=O)c2c1cccc2-n1nnc2ccccc21"
output: 106

input: Give its growth value. Item: "Cn1cc(-c2nc(-c3c[nH]c4ncccc34)cs2)c2cccnc21"
output: 63.1
